Measured values drawn from patent EP1345943B1 for this set.

# TGT: E1-E2-DNA complex (Human papillomavirus 11)
# TEST SUMMARY: E2-dependent E1 DNA binding assay (E1-E2 DNA assay)
# CONDITION PARAMETERS: E1-E2 DNA assay of Example 11, HPV-11
# Method: This particular assay determines the ability of a test compound to inhibit the activity (IC50) of HPV-11 DNA replication. More specifically, in the assay described herein, the inhibitory activity of the test compound is evaluated based on its ability to interfere with the E1-E2-DNA origin of replication interaction, thereby inhibiting initiation of viral DNA replication. This assay was modeled on a similar assay for SV40 T Antigen described by McKay (J. Mol. Biol., 1981,145:471). […]
Kindly state IC50 for each of the entries shown.

Dear colleague, I am looking for the recorded IC50 of the following compound: O=C(Nc1cnc2ccccc2c1)C1C(c2ccc(F)c(F)c2)OC2(C(=O)c3ccccc3C2=O)C1C(=O)O (stereo not drawn) 5 to 50 µM

Need IC50 of O=C(Nc1ccc(F)cc1F)C1C(c2ccc(Cl)cc2)OC2(C(=O)c3ccccc3C2=O)C1C(=O)O (stereo not drawn) , thanks. 5 to 50 µM

Given the entry O=C(Nc1ccc2c(c1)OCO2)C1C(c2ccc(I)cc2)OC2(C(=O)c3ccccc3C2=O)C1C(=O)O (stereo not drawn) , report its measured IC50. 0.5 to 5 µM

Requested field: IC50. Item: Cc1cccc(C2OC3(C(=O)c4ccccc4C3=O)C3C(=O)N(c4ccc5c(c4)OCO5)C(=O)C23)c1 (stereo not drawn) 5 to 50 µM

Give its IC50 value. Item: CC(=O)c1ccc(NC(=O)C2C(c3ccc(F)c(F)c3)OC3(C(=O)c4ccccc4C3=O)C2C(=O)O)cc1 (stereo not drawn) 5 to 50 µM

Given the entry CC(=O)c1ccc(NC(=O)C2C(c3ccc(Cl)c(Cl)c3)OC3(C(=O)c4ccc(Cl)cc4C3=O)C2C(=O)O)cc1 (stereo not drawn) [Compound 1116] , report its measured IC50. 5 to 50 µM

# query: IC50 of entry O=C(Nc1ccc(F)cc1)C1C(c2ccc(Cl)cc2)OC2(C(=O)c3ccccc3C2=O)C1C(=O)O (stereo not drawn) 5 to 50 µM

IC50 for O=C(Nc1ccc(Br)c(Cl)c1)C1C(c2ccc(F)c(Cl)c2)OC2(C(=O)c3ccccc3C2=O)C1C(=O)O (stereo not drawn) ? 0.5 to 5 µM

Give its IC50 value. Item: O=C(Nc1ccc(Cl)c(Cl)c1)C1C(c2ccc(Br)c(Br)c2)OC2(C(=O)c3ccccc3C2=O)C1C(=O)O (stereo not drawn) < 0.5 µM

Fill in the blank: the reported IC50 of O=C(Nc1cccc(Cl)c1)C1C(c2ccc(Cl)cc2)OC2(C(=O)c3ccccc3C2=O)C1C(=O)O (stereo not drawn) is ____. 5 to 50 µM

Which IC50 is listed for O=C(NC1CCCCC1)C1C(c2ccc(Cl)cc2)OC23C(=O)c4ccccc4C2(O)OC(=O)C13 (racemic) ? 5 to 50 µM

Would you kindly share the measured IC50 for O=C(Nc1ccc2c(c1)OCO2)C1C(c2ccc(Cl)c(Cl)c2)OC2(C(=O)c3cccc(F)c3C2=O)C1C(=O)O (stereo not drawn) [Compound 1048] ? 0.5 to 5 µM

# input compound: O=C(NCc1ccccc1)C1C(c2ccc(Cl)c(Cl)c2)OC23C(=O)c4ccccc4C2(O)OC(=O)C13 (racemic) ; wanted: its IC50 0.5 to 5 µM

Entry under review: CC(C)(C)NC(=O)C1C(c2ccc(Cl)c(Cl)c2)OC2(C(=O)c3ccccc3C2=O)C1C(=O)O (stereo not drawn) . Reported IC50? 0.5 to 5 µM

What does the data say about its IC50? Entry: Cc1ccc(NC(=O)C2C(c3ccc(F)c(F)c3)OC3(C(=O)c4ccccc4C3=O)C2C(=O)O)cc1 (stereo not drawn) 5 to 50 µM

Dear colleague, I am looking for the recorded IC50 of the following compound: Cc1cc2c(s1)C1(O)OC(=O)C3C(C(=O)Nc4ccc(CNC(=O)OC(C)(C)C)cc4)C(c4ccc(Br)c(Br)c4)OC31C2=O (single isomer, unassigned) < 0.5 µM

Entry CC(=O)c1ccc(NC(=O)C2C(c3cccc(Cl)c3)OC3(C(=O)c4ccccc4C3=O)C2C(=O)O)cc1 (stereo not drawn) [Compound 1044] : reported IC50 = ? 5 to 50 µM

What does the data say about its IC50? Entry: O=C(Nc1ccc2c(c1)OCO2)C1C(c2ccc(Cl)cc2)OC2(C(=O)c3ccccc3C2=O)C1C(=O)O (stereo not drawn) 5 to 50 µM

// query IC50 value for entry CC(=O)c1ccc(NC(=O)C2C(C=Cc3ccccc3Br)OC3(C(=O)c4ccccc4C3=O)C2C(=O)O)cc1 (stereo not drawn) 0.5 to 5 µM

Query (compound): Cc1ccc2c(c1)C(=O)C1(OC(c3ccc(Cl)c(Cl)c3)C(C(=O)Nc3ccc4c(c3)OCO4)C1C(=O)O)C2=O (stereo not drawn) [Compound 1037] ; field requested: IC50 0.5 to 5 µM

Which IC50 is reported for this compound? CC(=O)c1ccc(NC(=O)C2C(c3ccc(C)c(C)c3)OC3(C(=O)c4ccccc4C3=O)C2C(=O)O)cc1 (stereo not drawn) 0.5 to 5 µM

Query: IC50; subject: O=C(Nc1ccc2c(c1)OCO2)C1C(c2ccc(C(F)(F)F)cc2)OC2(C(=O)c3ccccc3C2=O)C1C(=O)O (stereo not drawn) 5 to 50 µM

Tell me the measured IC50 of O=C1C2C(c3ccc(Cl)cc3)OC3(C(=O)c4ccccc4C3=O)C2C(=O)N1c1ccc2c(c1)CCC2 (stereo not drawn) , please. 5 to 50 µM

IC50 lookup needed for CC(=O)c1ccc(NC(=O)C2C(c3ccc(Cl)c(Cl)c3)OC3(C(=O)c4ccccc4C3=O)C2C(=O)O)cc1 (racemic) [Compound 1047] , thanks. 0.5 to 5 µM

* * *

Would you kindly list IC50 for each of these compounds?
# TGT: E1-E2-DNA complex (Human papillomavirus 11, UniProt P04015)
# Sequence (P04015 whole entry, one chain of several): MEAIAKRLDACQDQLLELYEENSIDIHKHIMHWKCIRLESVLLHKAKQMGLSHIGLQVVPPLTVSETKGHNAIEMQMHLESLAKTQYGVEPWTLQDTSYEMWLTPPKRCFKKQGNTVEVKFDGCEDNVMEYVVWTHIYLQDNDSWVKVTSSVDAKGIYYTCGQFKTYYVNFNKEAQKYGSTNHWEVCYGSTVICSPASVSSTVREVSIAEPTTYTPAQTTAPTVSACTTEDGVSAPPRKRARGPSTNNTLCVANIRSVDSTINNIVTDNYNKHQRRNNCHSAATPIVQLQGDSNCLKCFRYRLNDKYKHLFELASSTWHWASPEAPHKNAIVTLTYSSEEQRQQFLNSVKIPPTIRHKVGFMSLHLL
# TEST SUMMARY: E2-dependent E1 DNA binding assay (E1-E2 DNA assay)
# CONDITION PARAMETERS: E1-E2 DNA assay of Example 11, HPV-11

Any idea what its IC50 is? The compound is O=C1C2C(c3ccc(Cl)cc3)OC3(C(=O)c4ccccc4C3=O)C2C(=O)N1c1ccc(Cl)cc1 (stereo not drawn) [Compound 2007] 5 to 50 µM

Endpoint output: IC50 of Cc1ccc2c(c1)C(=O)C1(OC(c3ccc(Cl)c(Cl)c3)C(C(=O)Nc3ccc4c(c3)OCO4)C1C(=O)O)C2=O (single isomer, unassigned) [Compound A1005] . Value? < 0.5 µM

I would be grateful if you could share the reported IC50 for O=C(Nc1ccc2c(c1)OCO2)C1C(c2ccc(C(F)(F)F)c(F)c2)OC2(C(=O)c3ccccc3C2=O)C1C(=O)O (stereo not drawn) [Compound 1045] . 0.5 to 5 µM

Requested read-out: IC50. Entry: Cc1ccc2c(c1)C(=O)C1(OC(c3ccc(Br)c(Br)c3)C(C(=O)Nc3ccc(-c4csnn4)cc3)C1C(=O)O)C2=O (stereo not drawn) [Compound A1009] 5 to 50 µM

Dear colleague, I am looking for the recorded IC50 of the following compound: O=C1C2C(c3ccc(Cl)cc3)OC3(C(=O)c4ccccc4C3=O)C2C(=O)N1c1ccc2c(c1)OCO2 (stereo not drawn) [Compound 2001] 5 to 50 µM

// query IC50 value for entry O=C(Nc1ccc(OC(F)(F)F)cc1)C1C(c2ccc(F)c(Cl)c2)OC2(C(=O)c3ccccc3C2=O)C1C(=O)O (stereo not drawn) [Compound 1131] 0.5 to 5 µM

* * *

# TGT: E1-E2-DNA complex (Human papillomavirus 11, UniProt P04015)
# TEST SUMMARY: E2-dependent E1 DNA binding assay (E1-E2 DNA assay)
# CONDITION PARAMETERS: E1-E2 DNA assay of Example 11, HPV-11
# Procedure: This particular assay determines the ability of a test compound to inhibit the activity (IC50) of HPV-11 DNA replication. More specifically, in the assay described herein, the inhibitory activity of the test compound is evaluated based on its ability to interfere with the E1-E2-DNA origin of replication interaction, thereby inhibiting initiation of viral DNA replication. This assay was modeled on a similar assay for SV40 T Antigen described by McKay (J. Mol. Biol., 1981,145:471). […]
Hi there, I'd appreciate the recorded IC50 for every entry that follows.

# get_value(readout='IC50', item= CC(=O)c1ccc(NC(=O)C2C(c3ccc(Br)c(Br)c3)OC3(C(=O)c4ccccc4C3=O)C2C(=O)O)cc1 (racemic) ) < 500 nM

# input compound: Cc1ccc(NC(=O)C2C(c3ccc(Br)c(Br)c3)OC3(C(=O)c4ccccc4C3=O)C2C(=O)O)cc1 (racemic) ; wanted: its IC50 < 500 nM

Returns the measured IC50 for the input compound. Input: O=C(Nc1cc(F)cc(F)c1)C1C(c2ccc(F)c(Cl)c2)OC2(C(=O)c3ccccc3C2=O)C1C(=O)O (stereo not shown) 500 to 5000 nM

Which IC50 is listed for O=C(NCCc1ccccc1)C1C(c2ccc(F)c(Cl)c2)OC2(C(=O)c3ccccc3C2=O)C1C(=O)O (stereo not shown) ? 500 to 5000 nM

Item under review: CC(=O)c1ccc(N2C(=O)C3C(c4ccc(Cl)cc4)OC4(C(=O)c5ccccc5C4=O)C3C2=O)cc1 (stereo not shown) . Reported IC50? 5000 to 50000 nM

For O=C(Nc1ccc(-c2csnn2)cc1)C1C(c2ccc(Cl)c(Cl)c2)OC2(C(=O)c3ccccc3C2=O)C1C(=O)O (stereo not shown) , what is its reported IC50? < 500 nM

What value of IC50 has been recorded for this entry: O=C(Nc1ccccc1Cl)C1C(c2ccc(Cl)c(Cl)c2)OC2(C(=O)c3ccccc3C2=O)C1C(=O)O (stereo not shown) < 500 nM
